# Tested on: MCF7 breast
# protocol.notes: NCI tumour cell line growth inhibition, 48 h; in the data active = GI50 below about 0.43 µM; inactive = the rest
Form entry, call: pick from true = active, false = inactive

Completed entries (count: 5):
>  <molecule>
Cc1ccccc1NC(=O)N/C(N)=N/c1nc2ccccc2s1

>  <qualitative.label>
true

$$$$
>  <molecule>
Nc1cccc(-c2nc3sccn3c2-c2ccnc(NCCCNS(=O)(=O)c3ccc(C(F)(F)F)cc3)n2)c1

>  <qualitative.label>
false

$$$$
>  <molecule>
O=C(c1ccc(F)c(F)c1Nc1ccc(I)cc1F)N1CC(O)([C@H]2CCCCN2)C1

>  <qualitative.label>
false

$$$$
>  <molecule>
CNC(=O)c1cc(Oc2ccc3nc(NC(=O)c4cc(C(F)(F)F)cc(C(F)(F)F)c4)sc3c2)ccn1

>  <qualitative.label>
false

$$$$
>  <molecule>
O=C1OCC2=C1C(c1ccccc1)c1cc3c(cc1N2CCO)CCC3 (stereo not given)

>  <qualitative.label>
true

$$$$

-- ask Check the results log: what was the call for `NC(=O)c1cccc(N)c1` ?
-- reply false

-- ask Quick one: COc1cccc(C2=NN(C(C)=O)C(c3cc(OC)c(OC)c(OC)c3)C2)c1 (stereo not given)
-- reply false

-- ask Quick one: COC(=O)C1=C(C(=O)Nc2cccnc2)C2OC1(C(Cc1ccccc1)Oc1ccccc1)C1OC21 (stereo not given)
-- reply false

-- ask Quick one: `Clc1ccc(-c2nc(-c3c[nH]c4ncccc34)cs2)cc1`
-- reply false

-- ask Quick one: `CCc1ccc(/C(C#N)=C/C=C/c2ccccc2)cc1`
-- reply false

----------
// reported TGI per item
# Test system: DU-145 prostate
# protocol.notes: NCI tumour cell line growth inhibition, 48 h

See these solved cases before continuing.
>  <compound>
Cc1ccc2c(=O)c(-c3nnsn3)c[nH]c2n1

>  <result.value>
> 100 µM

$$$$
>  <compound>
O=C1OCC2=C1C(c1ccccc1)c1cc3c(cc1N2CCO)CCC3 (stereo unspecified)

>  <result.value>
0.464 µM

$$$$

-- ask If you can, please state the reported TGI value of `Nc1nn(C(=O)Nc2ccc(Cc3ccccc3)cc2)c2ccc(Cl)cc12` .
-- reply 33.8 µM

-- ask Quick one: `Nc1ccc(-c2nc3cc(F)ccc3s2)cc1Br`
-- reply > 100 µM

----------
# Test system: HCC-2998 colon
# protocol.notes: NCI tumour cell line growth inhibition, 48 h
// reported TGI per item

-- ask If you can, please state the reported TGI value of CC1C(=O)CCC1C(Sc1ccccc1)(Sc1ccccc1)Sc1ccccc1 (stereo not given) .
-- reply > 100 µM

-- ask Quick one: `Cc1ccccc1NC(=O)N/C(N)=N/c1nc2ccccc2s1`
-- reply > 100 µM

-- ask Quick one: `CCN(CC)/[N+]([O-])=N/OC`
-- reply > 100 µM

-- ask Quick one: `Cc1cc2c(cc1Cl)SC(NN(C)C)=NS2(=O)=O`
-- reply > 10 µM

-- ask Quick one: `CC(C)(C)OC(=O)N1C(C2=COc3ccccc3O2)=COc2cccnc21`
-- reply 3.16 µM

-- ask Quick one: `C=CC1(c2ccc(Cl)c(Cl)c2)OCCO1`
-- reply > 100 µM

-- ask Quick one: COC1=C(C)C(=O)C2C(C1=O)C(c1ccc(OC)c(OC)c1)[C@H]2C (stereo not given in full)
-- reply > 100 µM

-- ask Quick one: `C=C1CCCC(C)(C)[C@@H]1CC/C(C)=C/Cn1c2cccc(=O)c-2nc2ccccc21`
-- reply 4.53 µM

-- ask Quick one: `CC(=O)O[C@@]12[C@@H]3O[C@@]4(O)C[C@]5(C)[C@H]6C[C@@](C(C)C)(O[C@H]5c5ccoc5)O[C@H]1[C@]6(C4)O[C@]2(O)C(C)=CC3(C)C`
-- reply > 100 µM

-- ask Quick one: `CC(=O)OC[C@@]12CC[C@H]3C(C)(C)CCC[C@]3(C)[C@H]1C[C@@H](C1=CC(=O)O[C@H]1O)O2`
-- reply 3.12 µM

----------
# System: SF-539 CNS
# protocol.notes: NCI tumour cell line growth inhibition, 48 h
// reported TGI per item

See these solved cases before continuing.
>  <compound>
CC(=O)OCC1OC(O[C@@H]2C[C@H]3C(C)(C)[C@H](OC(C)=O)CC[C@]3(C)[C@H]3CC[C@@]45C[C@H](O)C[C@H](C)[C@@H]4CC=C5[C@@]32C)C(O)C(O)C1O (some centres not stated)

>  <measured.on>
SF-539 CNS

>  <TGI>
19.2 µM

$$$$
>  <compound>
Oc1ccc(Cl)cc1Cc1cc(Cl)cc(Cc2cc(Cl)ccc2O)c1O

>  <measured.on>
SF-539 CNS

>  <TGI>
4.37 µM

$$$$

-- ask If you can, please state the reported TGI value of O=C1OCC2=C1C(c1ccccc1)c1cc3c(cc1N2CCO)CCC3 (configuration not stated) .
-- reply 0.966 µM

-- ask Quick one: `NCCCCN`
-- reply > 100 µM

-- ask Quick one: `C/C(=N\N=C(\N)OB(F)F)c1ccccn1`
-- reply > 100 µM

-- ask Quick one: CCOC(=O)C(C)OC(=O)c1ccc(C)cc1 (configuration not stated)
-- reply > 100 µM

-- ask Quick one: `S=c1cn[nH]c2ccc(Br)cc12`
-- reply > 100 µM

-- ask Quick one: `Cc1nc(NC(=O)COc2cccc(/C=C3\COc4ccccc4C3=O)c2)sc1C`
-- reply 3.46 µM

-- ask Quick one: `Clc1cccc(Cn2cc(Cc3cn(Cc4cccc(Cl)c4)c4ccccc34)c3ccccc32)c1`
-- reply > 100 µM

-- ask Quick one: COC(=O)C1C(=O)O[C@@H](c2ccc(OC)cc2)C1C(=O)OC (some centres not stated)
-- reply > 100 µM

----------
# Test system: IGROV1 ovarian
# protocol.notes: NCI tumour cell line growth inhibition, 48 h; in the data active = GI50 below about 0.43 µM; inactive = the rest
Form entry, call: pick from T (active), F (inactive)

Completed entries (count: 5):
>  <molecule>
COC(=O)C1=C2C3=C(C(=O)c4ccccc4C3=O)N(Cc3ccccc3)C2(OC(C)=O)C=CC1=O (stereo unspecified)

>  <qualitative.label>
F

$$$$
>  <molecule>
O=C1OCC2=C1C(c1cccc([N+](=O)[O-])c1)c1cc3c(cc1N2CCO)CCC3 (stereo unspecified)

>  <qualitative.label>
T

$$$$
>  <molecule>
O=[N+]([O-])c1ccc(Oc2cccnc2)c([N+](=O)[O-])c1

>  <qualitative.label>
F

$$$$
>  <molecule>
C[CH2][Sn]1([CH2]C)[O]C2C(O)OC(CO)C(O)C2[O]1 (stereo unspecified)

>  <qualitative.label>
F

$$$$
>  <molecule>
O=C(c1ccc(F)c(F)c1Nc1ccc(I)cc1F)N1CC(O)([C@H]2CCCCN2)C1

>  <qualitative.label>
F

$$$$

-- ask Check the results log: what was the call for `Cc1cc(N2CCOCC2)nc(N(CCNc2ccnc3cc(Cl)ccc23)Cc2ccco2)n1` ?
-- reply F

-- ask Quick one: `Clc1ccc(N/N=C/c2ccccn2)nc1`
-- reply F

-- ask Quick one: `CCCCCCCCCCCCCCCCCC(=O)[O][Sn]([CH2]CCC)([CH2]CCC)[CH2]CCC`
-- reply T

-- ask Quick one: `COc1c(Nc2ncc(Cl)c(N[C@@H]3[C@H]4C=CC(C4)[C@@H]3C(N)=O)n2)ccc2c1CC[C@@H](N1CCOCC1)CC2`
-- reply F

-- ask Quick one: `COc1cc(-c2nn(C)nc2-c2cc3ccccc3s2)cc(OC)c1OC`
-- reply F

-- ask Quick one: `COC(=O)c1c2c(c[n+]([O-])c1C)C(=O)C(NCc1ccccc1)=CC2=O`
-- reply T

-- ask Quick one: `Clc1ccc(-c2nc(-c3c[nH]c4ncccc34)cs2)cc1`
-- reply F

-- ask Quick one: `C=C1C(=O)O[C@H]2[C@H]1CC/C(COC(=O)NCc1c[nH]c3ccc(OC)cc13)=C\CC[C@@]1(C)O[C@@H]21`
-- reply F

-- ask Quick one: `Cc1nc(NC(=O)COc2cccc(/C=C3\COc4ccccc4C3=O)c2)sc1C`
-- reply F

-- ask Quick one: `Clc1cccc(Cn2cc(Cc3cn(Cc4cccc(Cl)c4)c4ccccc34)c3ccccc32)c1`
-- reply F

-- ask Quick one: `C[C@H](Nc1ccc(C#N)n(C)c1=O)c1cc2cc(Cl)ccc2[nH]c1=O`
-- reply F

----------
# Tested on: SK-OV-3 ovarian
# protocol.notes: NCI tumour cell line growth inhibition, 48 h
test.readout: TGI

See these solved cases before continuing.
>  <molecule>
C/C=C/C=C/C1=NN(c2cccc(S(=O)(=O)O)c2)C2(C1)C(Cl)C(=O)N2c1nc2ccccc2s1 (stereo unspecified)

>  <measured.on>
SK-OV-3 ovarian

>  <TGI>
33.9 µM

$$$$
>  <molecule>
Cc1oncc1C(=O)Nc1ccc(C(F)(F)F)cc1

>  <measured.on>
SK-OV-3 ovarian

>  <TGI>
> 100 µM

$$$$

-- ask If you can, please state the reported TGI value of CCC(C#N)N(Cc1ccc(CN(C(=O)c2ccccc2)C(C#N)CC)cc1)C(=O)c1ccccc1 (stereo unspecified) .
-- reply > 100 µM

-- ask Quick one: `COC(=O)C(=C\Sc1ccccc1)/C=C/C(=O)OC(C)(C)C`
-- reply 43.9 µM

-- ask Quick one: `Nc1cc(OCc2ccccc2)c(OCc2ccccc2)cc1C=O`
-- reply > 100 µM

-- ask Quick one: `CCOC(=O)CSc1[nH]c2nc(C)nc(Cl)c2c1C#N`
-- reply > 10 µM

-- ask Quick one: `Nc1cccc(-c2nc3sccn3c2-c2ccnc(NCCCNS(=O)(=O)c3ccc(C(F)(F)F)cc3)n2)c1`
-- reply > 100 µM

Data origin: PubChem BioAssay (NCI)
